Cited source for all entries: patent EP0427427A2

test: CD50: seizure following ip injection of the compound; details: mouse, in vivo, mice, no inverted screen TD50 performed, CD50 = dose when 50% of mice experience a seizure following ip injection
Value Type: TD50 (mg/kg)
Write the number in mg/kg without appending the unit.

Q. For the molecule NCC(=O)NC(Cc1ccccc1)c1ccccc1 (stereo not shown) [Compound B, 2-amino-N-(1,2-diphenylethyl)acetamide] , give its measured TD50 value.
A. 82.4

###

test: Inverted screen test of Coughenour et al. (TD50); conditions: mouse, in vivo, mice, oral
Value Type: TD50 (mg/kg)
# value in mg/kg; strip the unit string

Q. Specify reported TD50 for the compound shown: NCC(=O)NC(Cc1ccccc1)c1ccccc1 (stereo not shown) [Compound B, 2-amino-N-(1,2-diphenylethyl)acetamide]
A. 236
